tested on: Cem/hEnt-0; assay: Cytostatic assay, CEM cells lacking the hEnt1 transporter; format: cell-based; details: Homo sapiens, CCRF-CEM; Table 8; read-out: IC50 Cem/hEnt-0
Parameter: pIC50
Please treat pIC50 as minus the base-10 logarithm of the molar concentration.

query: Note pIC50 for the compound shown: O=c1[nH]c(=O)n([C@H]2C[C@H](O)[C@@H](COP(=O)(O)O)O2)cc1F [5-FdUMP, reference compound]
result: 5.44

====

For each record, write down the corresponding pIC50.
tested on: L1210.Hyor; assay: Cytostatic assay, Mycoplasma hyorhinis-infected L1210 cells; settings: Mus musculus, L1210, read-out: IC50 L1210.Hyor
Please treat pIC50 as minus the base-10 logarithm of the molar concentration.

query: Note pIC50 for the molecule shown: CCOC(=O)C(C)(C)NP(=O)(OC[C@H]1O[C@@H](n2cc(F)c(=O)[nH]c2=O)CC1O)Oc1ccccc1 (stereo partly shown)
result: 6.59

query: Note pIC50 for the molecule shown: C[C@H](NP(=O)(OC[C@H]1O[C@@H](n2cc(F)c(=O)[nH]c2=O)CC1O)Oc1cccc2ccccc12)C(=O)OC1CCCC1 (stereo partly shown)
result: 7.62

query: Note pIC50 for the molecule shown: CSCC[C@H](NP(=O)(OC[C@H]1O[C@@H](n2cc(F)c(=O)[nH]c2=O)CC1O)Oc1ccccc1)C(=O)OCc1ccccc1 (stereo partly shown)
result: 6.12

query: Note pIC50 for the molecule shown: CC(C)(NP(=O)(OC[C@H]1O[C@@H](n2cc(F)c(=O)[nH]c2=O)CC1O)Oc1ccccc1)C(=O)OCc1ccccc1 (stereo partly shown)
result: 7.70

query: Note pIC50 for the molecule shown: C[C@H](NP(=O)(OC[C@H]1O[C@@H](n2cc(F)c(=O)[nH]c2=O)CC1O)Oc1cccc2ccccc12)C(=O)OC1CCCCC1 (stereo partly shown)
result: 7.31

query: Note pIC50 for the molecule shown: CCCCOC(=O)[C@H](C)NP(=O)(OC[C@H]1O[C@@H](n2cc(F)c(=O)[nH]c2=O)CC1O)Oc1cccc2ccccc12 (stereo partly shown)
result: 7.68

query: Note pIC50 for the molecule shown: CCOC(=O)[C@H](C)NP(=O)(OC[C@H]1O[C@@H](n2cc(F)c(=O)[nH]c2=O)CC1O)Oc1cccc2ccccc12 (stereo partly shown)
result: 7.02

query: Note pIC50 for the molecule shown: CCCCCOC(=O)[C@H](C)NP(=O)(OC[C@H]1O[C@@H](n2cc(F)c(=O)[nH]c2=O)CC1O)Oc1cccc2ccccc12 (stereo partly shown)
result: 8.22

query: Note pIC50 for the molecule shown: O=C(OCc1ccccc1)C1CCCN1P(=O)(OC[C@H]1O[C@@H](n2cc(F)c(=O)[nH]c2=O)CC1O)Oc1ccccc1 (stereo partly shown)
result: 4.74

query: Note pIC50 for the molecule shown: CC(C)OC(=O)[C@H](C)NP(=O)(OC[C@H]1O[C@@H](n2cc(F)c(=O)[nH]c2=O)CC1O)Oc1ccccc1 (stereo partly shown)
result: 6.15

query: Note pIC50 for the molecule shown: C[C@H](NP(=O)(OC[C@H]1O[C@@H](n2cc(F)c(=O)[nH]c2=O)CC1O)Oc1cccc2ccccc12)C(=O)OC1CCC1 (stereo partly shown)
result: 7.62

query: Note pIC50 for the molecule shown: C[C@H](NP(=O)(OC[C@H]1O[C@@H](n2cc(F)c(=O)[nH]c2=O)CC1O)Oc1cccc2ccccc12)C(=O)OCCC(C)(C)C (stereo partly shown)
result: 7.49

query: Note pIC50 for the molecule shown: O=C(OCc1ccccc1)[C@H](Cc1ccccc1)NP(=O)(OC[C@H]1O[C@@H](n2cc(F)c(=O)[nH]c2=O)CC1O)Oc1cccc2ccccc12 (stereo partly shown)
result: 6.64
